target: pooled human IgG (human IgG1,2,3 and 4)
assay_metric: Enzyme Activity Endpoint Assay: scIgG (ng/µL)

- protein: "PRT-86 (protein) MANQEIRYSEEDPKHVTSVWTKGVTPPTDFTQGEDVLHAPYIANQGWYDITKTFNGKDDLLCGAATAGNMLHWWFDQNKEEIENYLKKHPEKQKIMFGDQELLDVRKVINTKDSQTNSKLFNYFREKAFPNLSARRLGVMPDLVLDMFINGYYLNVTKTQTTDVNRTYQTKDKRGGIFDAVFTRGDQTKLLTNRHDFKEKTLNEISDLIKQELQEGKALGLSHTYANVRINHVINLWGADFDSNGNLEAIYVTDSDANASIGMKKYFVGKNSAGKVAISAKEIKDDNIGAQVLGLFTLSTGQDIWNQTN"
  numeric_readout: 53
- protein: "PRT-173 (protein) MANQEIRYSEVTPYHVTSVWTKGVTPPANFTQGEDVFHAPYVANQGWYDITKTFNGKDDLLCGAATAGNMLHWWFDQNKDQIKRYLEEHPEKQKINFNGEQMFDVKEAIDTKNHQLDSKLFEYFKEKAFPYLSTKHLGVFPDHVIDMFINGYRLSLTNHGPTPVKEGSKDPRGGIFDAVFTRGDQSKLLTSRHDFKEKNLKEISDLIKKELTEGKALGLSHTYANVRINHVINLWGADFDSNGNLKAIYVTDSDSNASIGMKKYFVGKNASGKVAISAKEIEGENIGAQVLGLFTLSTGQDSWNQTN"
  numeric_readout: 30
- protein: "PRT-84 (protein) MANQEIRYSEETPYTVTSVWTKGVTPPTQFIQGEDVFHAPYKANQGWYDITKTFNGKDNLLCGAATAGNMLHWWFDQNKEYIEAYLKKHPEKQKIMFGDQELLDVRKVINTKDSQTDSKLFNYFKDKAFPNLSARRLGVMPDLVLDMFINGYYLNVGKTQTTDVNRTYQEKDKRGGIFDAVFTRGDQSKLLTSRHDFKEKSLKEISDLIKKELTEGKALGLSHTYANVRINHVINLWGADFDSEGNLKAIYVTDSDSDASIGMKKYFVGVNSSGKVAISAKEIEEDNIGAQVLGLFTLSSGQDIWNQTN"
  numeric_readout: 51
- protein: "PRT-186 (protein) MANQEIRYSEVTPYHVTSVWTKGVTPPANFRKIVDGNIAYYHAPYVANQGWYDITKTFNGKDDLLCGAATAGNMLHWWFDQNKDQIKRYLEEHPEKQKINFNGEQMFDVKEAIDTKNHQLDSKLFEYFKEKAFPYLSTKHLGVFPDHVIDMFINGYRLSLTNHGPTPVKEGSKDPRGGIFDAVFTRGDQSKLLTSRHDFKEKNLKEISDLIKKELTEGKALGLSHTYANVRINHVINLWGADFDSNGNLKAIYVTDSDSNASIGMKKYFVGVNSAGKVAISAKEIKEDNIGAQVLGLFTLSTGQDSWNQTN"
  numeric_readout: 0
